Each recorded value in this set is attributed to the supplement of paper PMC10126150.

Test system: ATP;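 further: ATP exposure 15 min at 22 °C before imaging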
test-summary: switch fluorescence ratio, 500 uM ATP over buffer (Cy3 cluster intensity, sum of 5 cycles each) (fold (ratio)); higher = stronger signal-on switching upon ATP binding; sequences stand for … in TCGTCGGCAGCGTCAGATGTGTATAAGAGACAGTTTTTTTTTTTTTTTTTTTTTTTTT…TC
condition-label: aptamer strand: ATP DNA aptamer (quencher-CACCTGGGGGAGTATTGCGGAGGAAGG + anchor), 100 nM annealed; ATP concentration: 500 uM
The entries below come with measured switch fluorescence ratio values attached.
measurement-type: switch fluorescence ratio

>  <sequence-text>
CAGTTTGAGT

>  <system>
ATP;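 further: ATP exposure 15 min at 22 °C before imaging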

>  <test-value>
1.01

$$$$
>  <sequence-text>
TGGGCCTATT

>  <system>
ATP;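 further: ATP exposure 15 min at 22 °C before imaging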

>  <test-value>
0.976

$$$$
>  <sequence-text>
GCCGCATTGA

>  <system>
ATP;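 further: ATP exposure 15 min at 22 °C before imaging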

>  <test-value>
2.01

$$$$
>  <sequence-text>
TGCAATGCAC

>  <system>
ATP;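 further: ATP exposure 15 min at 22 °C before imaging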

>  <test-value>
1.56

$$$$
>  <sequence-text>
GAGTTATGG

>  <system>
ATP;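 further: ATP exposure 15 min at 22 °C before imaging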

>  <test-value>
0.995

$$$$
>  <sequence-text>
CTCAGAGTTT

>  <system>
ATP;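 further: ATP exposure 15 min at 22 °C before imaging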

>  <test-value>
1

$$$$
>  <sequence-text>
GTGTGGGTAT

>  <system>
ATP;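 further: ATP exposure 15 min at 22 °C before imaging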

>  <test-value>
0.985

$$$$
>  <sequence-text>
CCTCATAGTC

>  <system>
ATP;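 further: ATP exposure 15 min at 22 °C before imaging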

>  <test-value>
1.41

$$$$
>  <sequence-text>
GGGAGGGAGT

>  <system>
ATP;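 further: ATP exposure 15 min at 22 °C before imaging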

>  <test-value>
1.01

$$$$
>  <sequence-text>
ACACTTAGCT

>  <system>
ATP;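 further: ATP exposure 15 min at 22 °C before imaging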

>  <test-value>
1.07

$$$$
>  <sequence-text>
CGTTTAGGGA

>  <system>
ATP;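 further: ATP exposure 15 min at 22 °C before imaging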

>  <test-value>
1

$$$$
>  <sequence-text>
TACAACTCTC

>  <system>
ATP;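 further: ATP exposure 15 min at 22 °C before imaging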

>  <test-value>
0.963

$$$$
>  <sequence-text>
TGGAAAAGCT

>  <system>
ATP;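 further: ATP exposure 15 min at 22 °C before imaging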

>  <test-value>
1.06

$$$$
>  <sequence-text>
TTCTTATGAT

>  <system>
ATP;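 further: ATP exposure 15 min at 22 °C before imaging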

>  <test-value>
0.972

$$$$
>  <sequence-text>
GCAGGAGCCT

>  <system>
ATP;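 further: ATP exposure 15 min at 22 °C before imaging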

>  <test-value>
1.01

$$$$
>  <sequence-text>
CAGAAATTGG

>  <system>
ATP;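 further: ATP exposure 15 min at 22 °C before imaging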

>  <test-value>
1.01

$$$$
>  <sequence-text>
AAAGCACTTT

>  <system>
ATP;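 further: ATP exposure 15 min at 22 °C before imaging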

>  <test-value>
1.1

$$$$
>  <sequence-text>
ATTGCGAATT

>  <system>
ATP;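 further: ATP exposure 15 min at 22 °C before imaging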

>  <test-value>
1.02

$$$$
>  <sequence-text>
TCCCCAGCAC

>  <system>
ATP;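 further: ATP exposure 15 min at 22 °C before imaging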

>  <test-value>
3.1

$$$$
>  <sequence-text>
GGGATTAATG

>  <system>
ATP;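 further: ATP exposure 15 min at 22 °C before imaging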

>  <test-value>
1.01

$$$$
>  <sequence-text>
TACTATACGA

>  <system>
ATP;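 further: ATP exposure 15 min at 22 °C before imaging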

>  <test-value>
1.37

$$$$
>  <sequence-text>
CGTGGGGATC

>  <system>
ATP;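 further: ATP exposure 15 min at 22 °C before imaging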

>  <test-value>
1.06

$$$$
>  <sequence-text>
GATGACTTGC

>  <system>
ATP;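 further: ATP exposure 15 min at 22 °C before imaging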

>  <test-value>
1

$$$$
>  <sequence-text>
AGGATGGTGA

>  <system>
ATP;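 further: ATP exposure 15 min at 22 °C before imaging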

>  <test-value>
0.968

$$$$
>  <sequence-text>
CGTGTTGGGT

>  <system>
ATP;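 further: ATP exposure 15 min at 22 °C before imaging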

>  <test-value>
0.998

$$$$
>  <sequence-text>
TTATAATGCC

>  <system>
ATP;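 further: ATP exposure 15 min at 22 °C before imaging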

>  <test-value>
0.997

$$$$
>  <sequence-text>
ACTGGGGGGT

>  <system>
ATP;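 further: ATP exposure 15 min at 22 °C before imaging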

>  <test-value>
0.994

$$$$
>  <sequence-text>
ACGTGACGGG

>  <system>
ATP;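 further: ATP exposure 15 min at 22 °C before imaging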

>  <test-value>
1.07

$$$$
>  <sequence-text>
CCATCGTAAT

>  <system>
ATP;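 further: ATP exposure 15 min at 22 °C before imaging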

>  <test-value>
4.84

$$$$
>  <sequence-text>
TTGGATTTGG

>  <system>
ATP;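 further: ATP exposure 15 min at 22 °C before imaging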

>  <test-value>
1.02

$$$$
>  <sequence-text>
ACATAATTAG

>  <system>
ATP;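 further: ATP exposure 15 min at 22 °C before imaging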

>  <test-value>
1.02

$$$$
>  <sequence-text>
GGAAAATAGG

>  <system>
ATP;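 further: ATP exposure 15 min at 22 °C before imaging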

>  <test-value>
0.977

$$$$
>  <sequence-text>
GGAGTTAGGC

>  <system>
ATP;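 further: ATP exposure 15 min at 22 °C before imaging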

>  <test-value>
1

$$$$
>  <sequence-text>
CCTTTTATTT

>  <system>
ATP;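 further: ATP exposure 15 min at 22 °C before imaging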

>  <test-value>
1.04

$$$$
>  <sequence-text>
TTCGTCAACA

>  <system>
ATP;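 further: ATP exposure 15 min at 22 °C before imaging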

>  <test-value>
1.03

$$$$
>  <sequence-text>
TTTAAGTCGA

>  <system>
ATP;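 further: ATP exposure 15 min at 22 °C before imaging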

>  <test-value>
1.02

$$$$
>  <sequence-text>
TCACGTGGCT

>  <system>
ATP;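 further: ATP exposure 15 min at 22 °C before imaging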

>  <test-value>
0.975

$$$$
>  <sequence-text>
GGTCTAGAGA

>  <system>
ATP;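 further: ATP exposure 15 min at 22 °C before imaging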

>  <test-value>
0.98

$$$$
